Test: Pharmacokinetic parameters in rat plasma
Format: in vivo
Details: compared with OTL78
measuredProperty: clearance in rats in vivo, in words

Briefly, clearance in rats in vivo, in words measured for CC1(C)C(=CC=C2CCCC(C=CC3=[N+](CCCCS(=O)(=O)[O-])c4ccc(S(=O)(=O)[O-])cc4C3(C)C)=C2Oc2ccc(CC(NC(=O)CCOCCCOCCCNC(=O)CCC(NC(=O)NC(CCC(=O)[O-])C(=O)[O-])C(=O)[O-])C(=O)[O-])cc2)N(CCCCS(=O)(=O)[O-])c2ccc(S(=O)(=O)[O-])cc21.[Na+].[Na+].[Na+].[Na+].[Na+].[Na+].[Na+] (stereo not drawn) : cleared more rapidly

Per the records, this compound ( CC1(C)C(=CC=C2CCCC(C=CC3=[N+](CCCCS(=O)(=O)[O-])c4ccc(S(=O)(=O)[O-])cc4C3(C)C)=C2Oc2ccc(CC(NC(=O)CCOCCOCCNC(=O)CCC(NC(=O)NC(CCC(=O)[O-])C(=O)[O-])C(=O)[O-])C(=O)[O-])cc2)N(CCCCS(=O)(=O)[O-])c2ccc(S(=O)(=O)[O-])cc21.[Li+].[Li+].[Li+].[Li+].[Li+].[Li+].[Li+] (stereo not drawn) ) has clearance in rats in vivo, in words equal to cleared more rapidly

Entry under test: CC1(C)C(=CC=C2CCCC(C=CC3=[N+](CCCCS(=O)(=O)[O-])c4ccc(S(=O)(=O)[O-])cc4C3(C)C)=C2Oc2ccc(CC(NC(=O)CCOCCCOCCCCCOCCOCCNC(=O)CCC(NC(=O)NC(CCC(=O)[O-])C(=O)[O-])C(=O)[O-])C(=O)[O-])cc2)N(CCCCS(=O)(=O)[O-])c2ccc(S(=O)(=O)[O-])cc21.[Na+].[Na+].[Na+].[Na+].[Na+].[Na+].[Na+] (stereo not drawn) . Its clearance in rats in vivo, in words was cleared more rapidly
